The origin of these recorded values is patent US20220380471A1.

Give measured ELISA signal for each item. Keep answers brief.
- target: Non-relevant antigen
- assay_summary: phage ELISA, cross-species
Numbers only.

* RWB2 (VHH, Camel VHH; tag not described; also called camel antibody RWB2) VHH: AVQLVDSGGGSVQAGGSLRLSCVVSGYAFSTYDMAWFRQAPGEKCEWVSTVTNNGRTFYADSVKGRFIISRDNAKNILYLQMNSLKPEDTAVYSCAAAGVRWRCASGGNEGTQVTVSS | 0.0684
* RWB12 (VHH, Camel VHH; tag not described; also called camel antibody RWB12) VHH: QVQLVESGGGSVQVGGSLRLSCAASGFTYNSYSVGWFRQAPGKEREGVAAINSGGSSTYYAASVKGRFTISRDNAKNTVYLQMNSLKPEDTAMYYCAARSPSPLTFQTRTLREDSYNYWGQGTQVTVSS | 0.0597
* RWG8 (VHH, Camel VHH; tag not described; also called camel antibody RWG8) VHH: DVQLVESGGGLVQPGGSLRLSCAASGFTFSRYWMGWFRQAPGKGVEWVSTINSGGGSTYYADSVKGRFTISRDNAKNTLYLQLNNLKTEDTAMYYCAKEQWRTGSRGQGTQVTVSS | 0.0659
* RWD5 (VHH, Camel VHH; tag not described; also called RWDS [sic]; camel antibody RWD5) VHH: AVQLVESGGGLVQPGGSLSVSCAASGFTFSVYWFYWVRQAPRQGLEWVSTIASNGSTYYSDSVKGRFTISRDNAKNTVYLQMNSLKPEDTAVYYCVSDPDYYSDYEREYKFWAQGTQVTVSS | 0.0583
* RWC3 (VHH, Camel VHH; tag not described; also called camel antibody RWC3) VHH: QVQLVESGGGLVQPGGSLSVSCAASGFTFSVYWFYWVRQAPRQGLEWVSTIASNGSTYYSDSVKGRFTISRDNAKNTVYLQMNSLKPEDTAVYYCVSDPDYYSDYERAYKFWAQGTQVTVSS | 0.0654

Need ELISA signal for each of these binders.
1. RWH1 (VHH, Camel VHH; tag not described; also called camel antibody RWH1) VHH: AVQLVESGGGSVQAGGSLRLSCAASGMNLDNYVRGWLRQAPGSKCEFVSIIRRDGTTDYGDSVKGRFTISRDNAKNTVYLQMNSLKPDDTAVYYCAAIVVPRAAEYACDGLPYRGQGTQVTVSS
2. RWG4 (VHH, Camel VHH; tag not described; also called camel antibody RWG4) VHH: QVQLVQSGGGLVQPGGSLRLSCAASGFTFSVYWFYWVRQAPRQGLEWVSTIASNGSTYYSDSVKGRFTISRDNAKNTVYLQMNSLKPEDTAVYYCVSDPDYYSDYERAYKFWAQGTQVTVSS
3. RWC4 (VHH, Camel VHH; tag not described; also called camel antibody RWC4) VHH: EVQLVESGGGSVQAGGSLRLSCVASEDSTSAMCMGWFRQAPGKEREGVACINPTGEVTWYGDSVKGRFTISRDTVKKIVYLQMNSLKPEDTAMYYCAARVTYGGDWSTDTDYEYWGQGTQVTVSS
4. RWD9 (VHH, Camel VHH; tag not described; also called camel antibody RWD9) VHH: EVQLVESGGGLVQPGGSLSVSCAASGFTFSVYWFYWVRQAPRQGLEWVSTIASNGSTYYSDSVKGRFTISRDNAKNTVYLQMNSLKPEDTAVYYCVSDPDYYSDYERAYKFWAQGTQVTVSS

1: 0.0608; 2: 0.14; 3: 0.0764; 4: 0.113
